Record form. Attribute: pIC50. Fill in for each entry.
Molecular target: T1, human VPAC1 (human, UniProt P32241 31-457)
T1 construct: whole, on cells; The cAMP assay used whole cells; also called VPAC1 receptor
T1 sequence (looked up): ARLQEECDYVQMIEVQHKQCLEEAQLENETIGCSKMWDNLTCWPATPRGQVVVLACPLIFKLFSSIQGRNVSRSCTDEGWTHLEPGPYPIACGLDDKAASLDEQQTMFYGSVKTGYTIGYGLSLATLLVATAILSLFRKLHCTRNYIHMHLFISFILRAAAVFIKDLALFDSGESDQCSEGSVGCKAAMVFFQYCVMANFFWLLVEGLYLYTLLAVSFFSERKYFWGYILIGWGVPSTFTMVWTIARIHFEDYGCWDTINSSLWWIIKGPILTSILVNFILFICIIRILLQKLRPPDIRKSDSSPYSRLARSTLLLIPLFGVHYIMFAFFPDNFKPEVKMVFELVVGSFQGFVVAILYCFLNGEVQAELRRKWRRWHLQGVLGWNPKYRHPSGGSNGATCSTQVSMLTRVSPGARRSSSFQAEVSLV
Assay: competition with 125I-PACAP27 on membranes of CHO cells expressing human VPAC1
Square brackets hold non-standard residues; d marks the D form. Side chains are listed from the residue outwards. maleimide = methoxy-PEG-maleimide (thioether to cysteine thiol)
Reminder that pIC50 means the negative base-10 logarithm of the concentration expressed in mol/L.

# return recorded pIC50 for input Ac-H[dF]DAVFTNSYRKVLKRLSARKLLQDILC([maleimide-methoxy‑PEG 22 kD])-NH2 (also called PEGylated R2P3) [R2P3-PEG22kD]
7.68

# return recorded pIC50 for input Ac-H[dF]DAVFTNSYRKVLKRLSVRKLLQDILC([maleimide-methoxy‑PEG 22 kD])-NH2 (also called PEGylated R2P11) [R2P11-PEG22kD]
7.31
